Entry source: ChEMBL document CHEMBL1201862

- Test system: RPMI-8226
- EXPERIMENTAL DETAILS: NCI tumour cell line growth inhibition, 48 h
Calls of active or inactive are those of the source. Rule as the data show it: active = GI50 up to about 1.1 µM and inactive = higher.
Your response should consist of one outcome taken from 1 for active, -1 for inactive

// known answers, use as guide
Ask | So what was the verdict on CN(C)C(=S)/N=c1\ss/c(=N\C(=S)N(C)C)n1-c1ccc(Cl)cc1 in this test?
Reply | -1

Ask | I'd appreciate the recorded outcome for Nc1nc(Cl)c(N)c(NC23CC4CC(CC(C4)C2)C3)n1 from this test.
Reply | -1

Ask | What is the recorded call for this compound in the test? NC1=Nc2ccccc2Sc2nncn21
Reply | -1

---
Ask | # lookup: test call for COC(=O)/C(C=O)=C/Sc1ccccc1
Reply | -1

Ask | Call for entry CCOC(=O)NC(NC1=NCCS1)(C(=O)OCC)C(F)(F)F (stereo not given) :
Reply | -1

Ask | Look up the recorded call for COc1cc([C@@H]2c3cc4c(cc3[C@@H](Nc3ccc(C(=O)N[C@H]5CCc6cc(OC)c(OC)c(OC)c6-c6ccc(SC)c(=O)cc65)cc3)[C@H]3COC(=O)[C@H]23)OCO4)cc(OC)c1O in this test.
Reply | 1

Ask | What outcome does the record of this test show for CC1CC2C3CCC4=CC(=O)C=CC4(C)C3(F)C(O)CC2(C)C1(O)C(=O)CO.Cc1nnc(NS(=O)(=O)c2ccc(/N=N/c3cc(/N=N/c4ccc(S(=O)(=O)Nc5nnc(C)s5)cc4)c4c(NC(=O)C(Cl)Cl)cccc4c3OC(=O)C(Cl)Cl)cc2)s1 ?
Reply | 1

Ask | Please share the test call associated with CSc1nc(=O)n(CCC#N)nc1SC .
Reply | -1

Ask | Test call for this compound, please: C[C@@H]1S[C@H](c2c(Cl)cccc2Cl)N2Cc3ccccc3N=C12
Reply | -1

Ask | Record lookup: outcome of this test for O=c1cc(-c2ccc(Cl)cc2)oc2cc(OCCCOc3ccc4c(=O)cc(-c5ccc(Cl)cc5)oc4c3)ccc12 ?
Reply | -1

----------
# GI50 annotations
- System: OVCAR-5
- EXPERIMENTAL DETAILS: NCI tumour cell line growth inhibition, 48 h
Calls of active or inactive are those of the source. Cut-off read from the data, not from the text of the source: active = GI50 up to about 1.1 µM and inactive = higher.

A selection of reference data follows.
Ask | Need GI50 of O=c1oc2ccccc2cc1-c1nc2ccccc2c(=O)[nH]1 , thanks.
Reply | > 100 µM (inactive)

Ask | Returns the measured GI50 for the input compound. Input: CC1=NN(c2cccc(Cl)c2)C(=N/c2nc3ccccc3s2)/C1=C\c1cccs1
Reply | > 100 µM (inactive)

Ask | Would you kindly share the measured GI50 for S=c1nc(N2CCCCC2)c2cn[nH]c2[nH]1 ?
Reply | > 100 µM (inactive)

Ask | Query: GI50; subject: C[n+]1c2ccccc2c(NC(CCCNC(=N)N)C(=O)O)c2ccccc21 (stereo not drawn)
Reply | > 100 µM (inactive)

Others:
Ask | Item Cc1ccc(-c2c(C#N)c(-c3ccc(Cl)cc3)c(C#N)c(=O)n2NS(=O)(=O)c2ccccc2)cc1 has what recorded GI50?
Reply | > 100 µM (inactive)

Ask | Given COc1cc([C@@H]2c3cc4c(cc3[C@@H](Nc3ccc(C(=O)N[C@H]5CCc6cc(OC)c(OC)c(OC)c6-c6ccc(SC)c(=O)cc65)cc3)[C@H]3COC(=O)[C@H]23)OCO4)cc(OC)c1O , state its recorded GI50.
Reply | 43.1 µM (inactive)

Ask | Consider the compound N=C(N)NCC1CCCCCCN1 (stereo not drawn) and give its measured GI50.
Reply | > 100 µM (inactive)

Ask | Any idea what its GI50 is? The compound is CCNc1cc2c3c(c1)CCCN3CCC2
Reply | 21.6 µM (inactive)
